# Procedure text: Solubility of Compound 1 in pharmaceutical solvents at 25° C.
# Type: physicochemical
# Measurement setup: organic solvent or mixture; PEG 400/Benzyl Alcohol (80:20), 25° C.
Attribute measured: solubility (mg/mL)
Note: unit mg/mL is implicit; provide only the numeric part.

Could you share which solubility value was measured for Cc1ccc(F)cc1C(=O)Nc1ccc(C(=O)N2Cc3cccn3Cc3ccccc32)c(Cl)c1 [Compound 1] ?
14.6

====

# Procedure text: Solubility of Compound 1 in pharmaceutical solvents at 25° C.
# Format: physicochemical
# Measurement setup: aqueous with cosolvent or surfactant or cyclodextrin; PEG 300/Alcohol/Water (40:30:30), 25° C.
Attribute measured: solubility (µg/mL)
Give just the numeric value; µg/mL need not be written.

Look up solubility for this compound: Cc1ccc(F)cc1C(=O)Nc1ccc(C(=O)N2Cc3cccn3Cc3ccccc32)c(Cl)c1
280

====

# Procedure text: Solubility of Compound 1 in pharmaceutical solvents at 25° C.
# Format: physicochemical
# Measurement setup: propylene glycol (printed: Propylyne glycol), organic solvent or mixture; Propylyne glycol, 25° C.
Attribute measured: solubility (µg/mL)
Numbers only here, please. The scale is µg/mL.

Tell me the measured solubility of Cc1ccc(F)cc1C(=O)Nc1ccc(C(=O)N2Cc3cccn3Cc3ccccc32)c(Cl)c1 , please.
600

====

# Procedure text: Solubility of Compound 1 in pharmaceutical solvents at 25° C.
# Format: physicochemical
# Measurement setup: plasma or biological fluid; Human Serum Albumin, 25° C.
Attribute measured: solubility (µg/mL)
Express the result in µg/mL but write the number alone.

What value of solubility has been reported for the following compound? Cc1ccc(F)cc1C(=O)Nc1ccc(C(=O)N2Cc3cccn3Cc3ccccc32)c(Cl)c1
16

====

# Procedure text: Solubility of Compound 1 in pharmaceutical solvents at 25° C.
# Type: physicochemical
# Measurement setup: oil or lipid; Oleic acid, 25° C.
Attribute measured: solubility (µg/mL)
Report as a plain number; the unit µg/mL is understood.

Reported solubility, compound Cc1ccc(F)cc1C(=O)Nc1ccc(C(=O)N2Cc3cccn3Cc3ccccc32)c(Cl)c1 : ____
40

====

# Procedure text: Solubility of Compound 1 in pharmaceutical solvents at 25° C.
# Format: physicochemical
# Measurement setup: oil or lipid; Olive oil, 25° C.
Attribute measured: solubility (mg/mL)
Report the figure in mg/mL without appending any unit label.

Can you share its solubility? I mean this compound: Cc1ccc(F)cc1C(=O)Nc1ccc(C(=O)N2Cc3cccn3Cc3ccccc32)c(Cl)c1 [Compound 1]
0.03

====

# Procedure text: Solubility of Compound 1 in pharmaceutical solvents at 25° C.
# Type: physicochemical
# Measurement setup: oil or lipid; Ethyl oleate, 25° C.
Attribute measured: solubility (µg/mL)
Response body: numeric value in µg/mL, unit text excluded.

Given the compound Cc1ccc(F)cc1C(=O)Nc1ccc(C(=O)N2Cc3cccn3Cc3ccccc32)c(Cl)c1 , what is its reported solubility?
200

====

# Procedure text: Solubility of Compound 1 in pharmaceutical solvents at 25° C.
# Assay type: physicochemical
# Measurement setup: aqueous with cosolvent or surfactant or cyclodextrin; Sodium Lauryl sulfate, 25° C.
Attribute measured: solubility

Record request: solubility value, item Cc1ccc(F)cc1C(=O)Nc1ccc(C(=O)N2Cc3cccn3Cc3ccccc32)c(Cl)c1
20 µg/mL

====

# Procedure text: Solubility of Compound 1 in pharmaceutical solvents at 25° C.
# Type: physicochemical
# Measurement setup: fassgf or other biorelevant; SIF without enzyme, 25° C.
Attribute measured: solubility

Look up solubility: Cc1ccc(F)cc1C(=O)Nc1ccc(C(=O)N2Cc3cccn3Cc3ccccc32)c(Cl)c1 [Compound 1]
< 1 ng/mL
